measurement_protocol: Inhibition of beta-lactamase NDM1 (unknown origin) expressed in Escherichia coli BL21(DE3) using cefotaxime/nitrocefin as substrate by measuring substrate hydrolysis at 100 uM by spectrophotometric analysis
Activity calls are given as the source filed them. No cut-off for these calls is given here.
assay_readout: inhibition

Consider the reported inhibition for these compounds:
{"chemical_smiles": "S=c1[nH]nc(-c2cc3ccccc3[nH]2)n1/N=C/c1ccc(OCc2ccccc2)cc1", "inhibition": "inactive"}
{"chemical_smiles": "O=C(O)c1ccccc1/C=N/n1c(-c2ccccc2O)n[nH]c1=S", "inhibition": "inactive"}
{"chemical_smiles": "Oc1ccc(/C=N/n2c(-c3cc(Cl)cc(Cl)c3)n[nH]c2=S)c(O)c1", "inhibition": "50%"}
{"chemical_smiles": "Oc1ccc(/C=N/n2c(Cc3ccccc3)n[nH]c2=S)c(O)c1", "inhibition": "inactive"}
{"chemical_smiles": "S=c1[nH]nc(CCc2ccccc2)n1/N=C/c1ccc(OCc2ccccc2)cc1", "inhibition": "30%"}
{"chemical_smiles": "S=c1[nH]nc(-c2ccc(-c3ccccc3)cc2)n1/N=C/c1ccc(OCc2ccccc2)cc1", "inhibition": "64%"}
{"chemical_smiles": "Oc1ccc(/C=N/n2c(-c3cccc(-c4ccccc4)c3)n[nH]c2=S)c(O)c1", "inhibition": "65%"}
{"chemical_smiles": "Cc1ccccc1-c1n[nH]c(=S)n1/N=C/c1cc([N+](=O)[O-])ccc1O", "inhibition": "inactive"}

Input line: Report inhibition for Oc1ccc(/C=N/n2c(-c3cc4ccccc4[nH]3)n[nH]c2=S)c(O)c1 please.
Output line: inactive

Input line: Report inhibition for S=c1[nH]nc(Cc2ccc3ccccc3c2)n1/N=C/c1ccc(OCc2ccccc2)cc1 please.
Output line: inactive

Input line: Report inhibition for Oc1ccc(/C=N/n2c(-c3cc(O)ccc3O)n[nH]c2=S)c(O)c1 please.
Output line: inactive

====

measurement_protocol: Inhibition of beta-lactamase L1 (unknown origin) expressed in Escherichia coli BL21(DE3) using nitrocefin as substrate by measuring substrate hydrolysis at 100 uM preincubated for 30 mins by spectrophotometric analysis
Calls of active or inactive are those of the source. The rule behind the calls is not given here.
assay_readout: inhibition

Consider the reported inhibition for these compounds:
{"chemical_smiles": "Oc1ccc(/C=N/n2c(-c3ccc(Cl)cc3)n[nH]c2=S)c(O)c1", "result": "54%"}
{"chemical_smiles": "Oc1ccc(/C=N/n2c(-c3ccccc3)n[nH]c2=S)c(O)c1", "result": "46%"}
{"chemical_smiles": "Oc1ccc(/C=N/n2c(-c3cccc(-c4ccccc4)c3)n[nH]c2=S)c(O)c1", "result": "inactive"}
{"chemical_smiles": "O=C(O)c1ccccc1/C=N/n1c(-c2ccccc2O)n[nH]c1=S", "result": "40%"}
{"chemical_smiles": "O=C(O)c1ccccc1/C=N/n1c(-c2ccc(Cl)cc2)n[nH]c1=S", "result": "60%"}
{"chemical_smiles": "Oc1ccc(/C=N/n2c(CC(c3ccccc3)c3ccccc3)n[nH]c2=S)c(O)c1", "result": "35%"}

Input line: Report inhibition for O=C(O)c1ccccc1/C=N/n1c(-c2cccc(Cl)c2)n[nH]c1=S please.
Output line: 60%

Input line: Report inhibition for Cc1ccccc1-c1n[nH]c(=S)n1/N=C/c1ccc(F)cc1 please.
Output line: 30%

Input line: Report inhibition for S=c1[nH]nc(-c2ccccc2-c2ccccc2)n1/N=C/c1ccc(OCc2ccccc2)cc1 please.
Output line: inactive

Input line: Report inhibition for Oc1ccc(/C=N/n2c(-c3cccc(C(F)(F)F)c3)n[nH]c2=S)c(O)c1 please.
Output line: 15%

====

measurement_protocol: Inhibition of beta-lactamase IMP-1 (unknown origin) expressed in Escherichia coli BL21(DE3) using imipenem as substrate by measuring substrate hydrolysis at 100 uM by spectrophotometric analysis
Activity calls are given as the source filed them. No cut-off for these calls is given here.
assay_readout: inhibition

Consider the reported inhibition for these compounds:
{"chemical_smiles": "O=C(O)c1ccccc1/C=N/n1c(-c2cc(Cl)cc(Cl)c2)n[nH]c1=S", "inhibition": "53%"}
{"chemical_smiles": "S=c1[nH]nc(CC(c2ccccc2)c2ccccc2)n1/N=C/c1ccc(OCc2ccccc2)cc1", "inhibition": "30%"}
{"chemical_smiles": "Oc1ccc(/C=N/n2c(-c3ccc4ccccc4c3)n[nH]c2=S)c(O)c1", "inhibition": "inactive"}
{"chemical_smiles": "Oc1ccc(/C=N/n2c(-c3cc(Cl)cc(Cl)c3)n[nH]c2=S)c(O)c1", "inhibition": "55%"}

Input line: Report inhibition for S=c1[nH]nc(Cc2ccc3ccccc3c2)n1/N=C/c1ccc(OCc2ccccc2)cc1 please.
Output line: inactive

====

measurement_protocol: Binding affinity to beta-lactamase VIM-2 expressed in Escherichia coli BL21(DE3) assessed as Gibbs free energy at 25 degC by isothermal titration calorimetry
assay_readout: deltaG (kcal/mol)

{"chemical_smiles": "O=C(O)c1ccccc1/C=N/n1c(-c2cc(Cl)cc(Cl)c2)n[nH]c1=S", "deltaG [kcal/mol]": -8.2}
{"chemical_smiles": "O=C(O)c1ccccc1/C=N/n1c(-c2ccccc2)n[nH]c1=S", "deltaG [kcal/mol]": -8.5}
{"chemical_smiles": "O=C(O)c1ccccc1/C=N/n1c(-c2ccc3ccccc3c2)n[nH]c1=S", "deltaG [kcal/mol]": -8.4}
{"chemical_smiles": "Oc1ccc(/C=N/n2c(-c3cccc(Br)c3)n[nH]c2=S)c(O)c1", "deltaG [kcal/mol]": -8.8}
{"chemical_smiles": "O=C(O)c1ccccc1/C=N/n1c(-c2cccc(-c3ccccc3)c2)n[nH]c1=S", "deltaG [kcal/mol]": -9.8}
{"chemical_smiles": "Cc1ccccc1-c1n[nH]c(=S)n1/N=C/c1ccc(O)c(C(=O)O)c1", "deltaG [kcal/mol]": -8}
{"chemical_smiles": "COc1ccc(O)c(-c2n[nH]c(=S)n2/N=C/c2ccccc2C(=O)O)c1", "deltaG [kcal/mol]": -8.7}
{"chemical_smiles": "Oc1ccc(/C=N/n2c(-c3ccccc3O)n[nH]c2=S)c(O)c1", "deltaG [kcal/mol]": -7.5}

====

measurement_protocol: Inhibition of beta-lactamase NDM1 (unknown origin) expressed in Escherichia coli BL21(DE3) using cefotaxime/nitrocefin as substrate by measuring substrate hydrolysis by spectrophotometric analysis
assay_readout: pKi
Scale: pKi equals -log10([C]), with [C] in mol/L.

{"chemical_smiles": "O=C(O)c1ccccc1/C=N/n1c(Cc2ccc3ccccc3c2)n[nH]c1=S", "recorded_number": 5.77}
{"chemical_smiles": "O=C(O)c1ccccc1/C=N/n1c(-c2cc(O)ccc2O)n[nH]c1=S", "recorded_number": 4.10}
{"chemical_smiles": "Cc1ccccc1-c1n[nH]c(=S)n1/N=C/c1ccccc1C(=O)O", "recorded_number": 3.96}
{"chemical_smiles": "O=C(O)c1ccccc1/C=N/n1c(-c2cccc3ccccc23)n[nH]c1=S", "recorded_number": 4.12}
{"chemical_smiles": "Oc1ccc(/C=N/n2c(CCc3ccccc3)n[nH]c2=S)c(O)c1", "recorded_number": 3.77}
{"chemical_smiles": "S=c1[nH]nc(-c2ccc(Cl)cc2)n1/N=C/c1ccc(OCc2ccccc2)cc1", "recorded_number": 5.39}

Input line: Report pKi for Oc1ccc(/C=N/n2c(-c3ccc(-c4ccccc4)cc3)n[nH]c2=S)c(O)c1 please.
Output line: 5.74

====

measurement_protocol: Inhibition of beta-lactamase NDM1 (unknown origin) expressed in Escherichia coli BL21(DE3) using cefotaxime/nitrocefin as substrate by measuring substrate hydrolysis at 200 uM by spectrophotometric analysis
Calls of active or inactive are those of the source. The rule behind the calls is not given here.
assay_readout: inhibition

Consider the reported inhibition for these compounds:
{"chemical_smiles": "Cc1ccccc1-c1n[nH]c(=S)n1/N=C/c1ccc(O)cc1", "inhibition": "inactive"}
{"chemical_smiles": "Cc1ccccc1-c1n[nH]c(=S)n1/N=C/c1ccc(C(=O)O)cc1", "inhibition": "inactive"}
{"chemical_smiles": "O=C(O)c1ccccc1/C=N/n1c(-c2cccc(Br)c2)n[nH]c1=S", "inhibition": "inactive"}
{"chemical_smiles": "Oc1ccc(/C=N/n2c(COc3ccc4ccccc4c3)n[nH]c2=S)c(O)c1", "inhibition": "inactive"}
{"chemical_smiles": "Cc1ccccc1-c1n[nH]c(=S)n1/N=C/c1ccc(O)cc1O", "inhibition": "inactive"}

Input line: Report inhibition for Oc1ccc(/C=N/n2c(-c3cc(O)ccc3O)n[nH]c2=S)c(O)c1 please.
Output line: inactive

Input line: Report inhibition for S=c1[nH]nc(Cc2ccccc2)n1/N=C/c1ccc(OCc2ccccc2)cc1 please.
Output line: inactive

Input line: Report inhibition for O=C(O)c1ccccc1/C=N/n1c(Cc2ccccc2)n[nH]c1=S please.
Output line: 60%

Input line: Report inhibition for S=c1[nH]nc(-c2cccc3ccccc23)n1/N=C/c1ccc(OCc2ccccc2)cc1 please.
Output line: inactive

Input line: Report inhibition for O=C(O)c1cccc(-c2cccc(/C=N/n3c(-c4ccc5ccccc5c4)n[nH]c3=S)c2)c1 please.
Output line: 50%

====

Reported MIC is given for each of the following compounds.
Test system: Escherichia coli
measurement_protocol: Synergistic antibacterial activity against NDM-1 producing Escherichia coli assessed as MIC of ceftazidime at 32 ug/ml by broth microdilution method
Type: functional
particulars: dose 32 µg/ml

Consider the reported MIC for these compounds:
{"chemical_smiles": "O=C(O)c1ccccc1/C=N/n1c(Cc2ccc3ccccc3c2)n[nH]c1=S", "MIC": "> 256 µg/mL"}
{"chemical_smiles": "Oc1ccc(/C=N/n2c(-c3ccc(-c4ccccc4)cc3)n[nH]c2=S)c(O)c1", "MIC": "> 256 µg/mL"}
{"chemical_smiles": "S=c1[nH]nc(-c2cccc(-c3ccccc3)c2)n1/N=C/c1ccc(OCc2ccccc2)cc1", "MIC": "> 256 µg/mL"}

Input line: Report MIC for O=C(O)c1ccccc1/C=N/n1c(-c2ccc(-c3ccccc3)cc2)n[nH]c1=S please.
Output line: > 256 µg/mL
